- test.system: 5-HT2A (Homo sapiens, UniProt P28223)
- Sequence (P28223 whole entry): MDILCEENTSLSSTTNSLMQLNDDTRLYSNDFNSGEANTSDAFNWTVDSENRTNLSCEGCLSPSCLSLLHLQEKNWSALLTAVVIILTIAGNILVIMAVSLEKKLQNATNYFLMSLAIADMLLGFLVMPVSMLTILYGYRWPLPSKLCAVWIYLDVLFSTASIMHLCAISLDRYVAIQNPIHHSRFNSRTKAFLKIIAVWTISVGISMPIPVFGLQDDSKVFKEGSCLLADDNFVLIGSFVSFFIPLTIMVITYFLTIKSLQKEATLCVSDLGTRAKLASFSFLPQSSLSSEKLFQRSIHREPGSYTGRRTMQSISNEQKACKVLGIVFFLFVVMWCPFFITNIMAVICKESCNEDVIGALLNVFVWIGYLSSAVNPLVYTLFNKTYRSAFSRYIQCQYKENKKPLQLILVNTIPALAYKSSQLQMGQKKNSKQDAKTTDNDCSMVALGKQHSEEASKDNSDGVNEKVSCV
- measurement.protocol: Serotonin 5-HT2A in vitro radioligand binding competition assay ([3H]-DOI)
- Parameters: purchased Epics Therapeutics S. A. (Belgium) FAST-0505B
- condition.summary: [3H]-DOI competition, membrane extracts
pIC50: −log10 of the molar value.
pIC50 overview
experimental.readout: pIC50

compound=Fc1ccc2ccn(C3CNC3)c2c1 experimental_readout=pIC50 result="6.00 to 7.00"
compound="COCCN1CCC(n2cc(C)c3cc(F)ccc32)C1 (stereo not shown)" experimental_readout=pIC50 result="5.00 to 6.00"
compound=Clc1ccc2c(ccn2C2CNC2)c1 experimental_readout=pIC50 result="5.00 to 6.00"
compound=CN1CCC(n2ccc3c(F)c(F)ccc32)CC1 experimental_readout=pIC50 result="6.00 to 7.00"
compound="Cc1cn(C2CCN(C3COC3)C2)c2ccc(F)cc12 (stereo not shown)" experimental_readout=pIC50 result="< 5.00"
compound="Cc1cn(C2CCN(C)C2)c2ccc(OC3COC3)cc12 (stereo not shown)" experimental_readout=pIC50 result="< 5.00"
compound=Fc1ccc2c(ccn2C2CNC2)c1F experimental_readout=pIC50 result="6.00 to 7.00"
compound=Cc1cn(C2CN(C)C2)c2ccc(F)cc12 experimental_readout=pIC50 result="6.00 to 7.00"
compound=Fc1ccc2c(ccn2C2CCNCC2)c1F experimental_readout=pIC50 result="6.00 to 7.00"
compound="Cc1cn(C2CCNC2)c2ccc(F)cc12 (stereo not shown)" experimental_readout=pIC50 result="6.00 to 7.00"
